# System: dorsal skin of Japanese-native rabbits
# TEST_DESCRIPTION: Primary skin irritation test (Draize's method)
# Type: in vivo
# Set-up: key: Draize points: 0-2 mild, 2-6 moderate, 6-8 severe irritation
# CONDITION_DESCRIPTION: 3% solution in polyethylene glycol 300, 72 hours after removal of plaster
Would you kindly list Average irritation score, 72 hours for each of these compounds?

CCCCCCCCCCCCN1CCCCCC1=O [Azone, 1-n-dodecylazacycloheptane-2-one, reference compound] ... 5.5 ± 1.9
CCCCCCCCCCOCCN1CCCC1=O [Example 57] ... 0.3 ± 0.3
CCCCCCCOCCCCN1CCCCCC1=O [Example 73] ... 0.5 ± 0.5
CCCCCCCCCCSCCN1CCCC1=O [Example 12] ... 0.5 ± 0.5

Query: Average irritation score, 72 hours; subject: CCCCCCCSCCCCN1CCCCCC1=O [Example 37]
0.5 ± 0.5

----------
# System: dorsal skin of Japanese-native rabbits
# TEST_DESCRIPTION: Primary skin irritation test (Draize's method)
# Type: in vivo
# Parameters: key: Draize points: 0-2 mild, 2-6 moderate, 6-8 severe irritation
# CONDITION_DESCRIPTION: 3% solution in polyethylene glycol 300, 24 hours after removal of plaster
# Description: As one of tests on the compounds of this invention for their topical toxicity, a primary skin irritation test was made on skins using rabbits as the subjects. […] The rabbits were evaluated three times for their dorsal skin irritative reaction 24, 48 and 72 hours after removal of the plaster by using a method in accordance with the Draize's method. […]
Would you kindly list Average irritation score, 24 hours for each of these molecules?

Worked cases, Average irritation score, 24 hours given:
CCCCCCCCCCOCCN1CCCC1=O ... 0.0 ± 0.0
CCCCCCCOCCCCN1CCCCCC1=O ... 0.3 ± 0.3
CCCCCCCSCCCCN1CCCCCC1=O ... 0.6 ± 2
CCCCCCCCCCCCN1CCCCCC1=O [Azone, 1-n-dodecylazacycloheptane-2-one, reference compound] ... 3.8 ± 1.3

Below: the item to evaluate.
Lab note: need Average irritation score, 24 hours with dorsal skin of Japanese-native rabbits for entry CCCCCCCCCCSCCN1CCCC1=O , please look it up.
0.3 ± 0.3

----------
# Tested on: dorsal skin of Japanese-native rabbits
# TEST_DESCRIPTION: Primary skin irritation test (Draize's method)
# Type: in vivo
# Parameters: key: Draize points: 0-2 mild, 2-6 moderate, 6-8 severe irritation
# CONDITION_DESCRIPTION: 3% solution in polyethylene glycol 300, 48 hours after removal of plaster
Would you kindly list Average irritation score, 48 hours for each of these molecules?
Numbers only.

Worked cases, Average irritation score, 48 hours given:
CCCCCCCOCCCCN1CCCCCC1=O ... 0.3
CCCCCCCCCCSCCN1CCCC1=O ... 0.3

Give one value of Average irritation score, 48 hours per listed molecule.
1. CCCCCCCCCCCCN1CCCCCC1=O [Azone, 1-n-dodecylazacycloheptane-2-one, reference compound]
2. CCCCCCCCCCOCCN1CCCC1=O
3. CCCCCCCSCCCCN1CCCCCC1=O

3.8
0.3
0.5

Cited source for all entries: patent US4882359A
